# Assay system: menin/MLL (terbium chelate-labeled menin, FITC-MBM1 peptide) (Homo sapiens, UniProt O00255, T541A)
# Construct: Menin (a.a 1-610-6xhis tag, 2.3 mg/mL in 20 mM Hepes)
# Sequence (O00255 with tags, fused parts or gaps T541A): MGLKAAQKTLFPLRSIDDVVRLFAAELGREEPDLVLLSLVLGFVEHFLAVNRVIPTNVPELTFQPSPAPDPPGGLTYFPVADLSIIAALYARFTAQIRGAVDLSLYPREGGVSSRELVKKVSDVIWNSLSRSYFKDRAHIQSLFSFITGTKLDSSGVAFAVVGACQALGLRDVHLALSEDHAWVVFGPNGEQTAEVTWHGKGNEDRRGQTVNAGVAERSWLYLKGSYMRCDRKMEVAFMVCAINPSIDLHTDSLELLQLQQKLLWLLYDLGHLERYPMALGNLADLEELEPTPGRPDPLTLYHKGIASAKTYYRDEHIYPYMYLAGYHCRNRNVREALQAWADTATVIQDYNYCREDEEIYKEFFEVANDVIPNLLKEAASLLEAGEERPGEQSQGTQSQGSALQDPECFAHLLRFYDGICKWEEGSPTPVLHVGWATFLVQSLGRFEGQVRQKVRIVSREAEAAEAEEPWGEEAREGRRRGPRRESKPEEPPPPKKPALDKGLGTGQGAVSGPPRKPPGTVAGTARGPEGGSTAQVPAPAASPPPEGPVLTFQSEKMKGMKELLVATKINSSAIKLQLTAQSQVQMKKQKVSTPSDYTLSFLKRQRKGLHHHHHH
# Experiment summary: Menin/MLL homogenous time-resolved fluorescence (HTRF) assay
# Experimental setup: 30 min incubation
# Procedure: 1) Menin/MLL Homogenous Time-Resolved Fluorescence (HTRF) Assay […] Compound potencies were determined by first calculating % inhibition at each compound concentration according to equation 1: […] Where LC and HC are the HTRF values of the assay in the presence or absence of a saturating concentration of a compound that competes with FITC-MBM1 for binding to menin, and HTRF^compound is the measured HTRF value in the presence of the test compound. […]
pIC50: −log10 of the molar value.
Endpoint name: pIC50

Answered examples (2):
{"columns": ["Compound", "pIC50"],
 "data": [
  ["Cc1cncc2c1c(C[C@@H]1CCN(CC(C)C)C1)cn2-c1ccc(F)cc1C(=O)N(C)C(C)C (single isomer, unassigned)", 10.22],
  ["CN=S(=O)(c1cc(F)ccc1-n1cc(CC2CCN(CC3CCOCC3)C2)c2c(C)cncc21)C(C)C (centres unmarked) [Compound 77]", 9.72]
]}

(I) Cc1cncc2c1c(CC1CN(CC3CCOCC3)C1)cn2-c1ccc(F)cc1S(=N)(=O)C(C)C (centres unmarked)
(II) Cc1cncc2c1c(CC1CN(CC(=O)N3CCCCC3)C1)cn2-c1ccc(F)cc1C(=O)N(C)C(C)C
(III) Cc1cncc2c1c(C[C@@H]1CCN(C[C@H]3CC[C@@H](C(=O)N4CCC4)CC3)C1)cn2-c1ccc(F)cc1C(=O)N(C)C(C)C
(IV) Cc1cncc2c1c(C[C@@H]1CCN(C[C@@H]3CCNC(=O)CC3)C1)cn2-c1ccc(F)cc1C(=O)N(C)C(C)C (single isomer, unassigned) [Compound 169b]
(V) Cc1cncc2c1c(C[C@H]1CCN([C@@H](C)C3CCOCC3)C1)cn2-c1ccc(F)cc1[S@](=N)(=O)C(C)C (single isomer, unassigned) [Compound 181b]
Inquiry: Would you mind ranking these compounds by ascending pIC50? Output spec: a listing of the labels in the requested order.
Reply text: V, II, IV, I, III
(V: 8.34, II: 9.13, IV: 9.71, I: 9.94, III: 10.26)

----------
# Assay system: menin/MLL (terbium chelate-labeled menin, FITC-MBM1 peptide) (Homo sapiens, UniProt O00255, T541A)
# Construct: Menin (a.a 1-610-6xhis tag, 2.3 mg/mL in 20 mM Hepes)
# Experiment summary: Menin/MLL homogenous time-resolved fluorescence (HTRF) assay
# Experimental setup: 30 min incubation
pIC50: −log10 of the molar value.
Endpoint name: pIC50

{"columns": ["Compound", "pIC50"],
 "data": [
  ["Cc1cncc2c1c(CC1CN(CC3CCOCC3)C1)cn2-c1ccc(F)cc1C(=O)N1CCC12COC2", 9.46]
]}

(I) Cc1cncc2c1c(CC1CN(CC3CCN(S(C)(=O)=O)CC3)C1)cn2-c1ccc(F)cc1C(=O)N(C)C(C)C
(II) CC(=O)N1CCC(CN2CC[C@H](Cc3cn(-c4ccc(F)cc4[S@@]4(=O)=NCCC4)c4cncc(C)c34)C2)CC1 (single isomer, unassigned) [Compound 224a]
Inquiry: Select one: I or II . Criterion: greater recorded pIC50. Output the label that corresponds to your choice.
Reply text: I
